The entries below are paired with their reported Kd.
Target: T1, cynomolgus monkey BCMA (cynomolgus monkey, UniProt A0A2K5UD97 1-53)
T1 construct: Soluble analyte in SPR; construct not described; also called cyBCMA; Cyno BCMA
T1 sequence (A0A2K5UD97 entry or part of it): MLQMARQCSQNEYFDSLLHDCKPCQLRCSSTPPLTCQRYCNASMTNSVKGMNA
Assay protocol: SPR, IgG on chip, cyBCMA analyte
// units = nM; emit number, no label

Some entries whose results are on file:
A02_Rd4_6nM_C19 (antibody, V domains shown, IgG) VH: EVQLLESGGGLVQPGGSLRLSCAASGFTFSSYAMNWVRQAPGKGLEWVSAISDSGGSRWYADSVKGRFTISRDNSKNTLYLQMNSLRAEDTAVYYCARYWPMSDWGQGTLVTVSS VL: EIVLTQSPGTLSLSPGERATLSCRASQSVSVLYLAWYQQKPGQAPRLLMYDASIRATGIPDRFSGSGSGTDFTLTISRLEPEDFAVYYCQQYLAWPLTFGQGTKVEIK : 0.26
COMBO_Rd4_0.6nM_C02 (antibody, V domains shown, IgG) VH: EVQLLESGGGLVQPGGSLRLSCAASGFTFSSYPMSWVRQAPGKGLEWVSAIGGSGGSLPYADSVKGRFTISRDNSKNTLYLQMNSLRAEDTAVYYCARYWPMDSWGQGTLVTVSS VL: EIVLTQSPGTLSLSPGERATLSCRASIAVSSTYLAWYQQKPGQAPRLLMYDASIRATGIPDRFSGSGSGTDFTLTISRLEPEDFAVYYCQQYMVWPLTFGQGTKVEIK : 0.164
COMBO_Rd4_0.6nM_C05 (antibody, V domains shown, IgG) VH: EVQLLESGGGLVQPGGSLRLSCAASGFTFSSYAMNWVRQAPGKGLEWVSAIGGSGGSTYYADSVKGRFTISRDNSKNTLYLQMNSLRAEDTAVYYCARYWPMSLWGQGTLVTVSS VL: EIVLTQSPGTLSLSPGERATLSCRASQSVSSTYLAWYQQKPGQAPRLLMYDASIRATGIPDRFSGSGSGTDFTLTISRLEPEDFAVYYCQQYMSWPLTFGQGTKVEIK : 0.886
A02_Rd4_0.6nM_C03 (antibody, V domains shown, IgG) VH: EVQLLESGGGLVQPGGSLRLSCAASGFTFSSYAMNWVRQAPGKGLEWVSAISDSGGSKWYADSVKGRFTISRDNSKNTLYLQMNSLRAEDTAVYYCARYWPMSLWGQGTLVTVSS VL: EIVLTQSPGTLSLSPGERATLSCRASQSVSSSYLAWYQQKPGQAPRLLMYDASIRATGIPDRFSGSGSGTDFTLTISRLEPEDFAVYYCQQYFTWPLTFGQGTKVEIK : 0.201

Now consider the entry below.
# input binder: COMBO_Rd4_6nM_C02 (antibody, V domains shown, IgG) VH: EVQLLESGGGLVQPGGSLRLSCAASGFTFSSYAMNWVRQAPGKGLEWVSAISDSGGFVYYADSVKGRFTISRDNSKNTLYLQMNSLRAEDTAVYYCARYWPMDSWGQGTLVTVSS VL: EIVLTQSPGTLSLSPGERATLSCRASQSVSSSYLAWYQQKPGQAPRLLMYDASIRATGIPDRFSGSGSGTDFTLTISRLEPEDFAVYYCQQYEFWPLTFGQGTKVEIK ; wanted: its Kd
1.71

These entries and their values trace back to patent US20190241669A1.
